Recorded measurements of folding stability dG unfold, one per entry
- test: folding stability dG unfold from trypsin proteolysis; higher = more stable

{"residue-sequence": "SAGKKKTVTIYLRVETPEEARKLVEELAKKLGAEVTSVEIEKVDGKYYVTVTIKVDGKEIKIVIEFEPSAGG [r19_262_TrROS_Hall]", "folding stability dG unfold (kcal/mol)": 2.04}
{"residue-sequence": "SAGGSAGGSAGKKIPFGKNVKILEIEEIDPDIIIIKFENSVFIVRILPNGEVKVIKFDIDSAGGSAGGSAGG [r11_612_TrMRF]", "folding stability dG unfold (kcal/mol)": 1.83}
{"residue-sequence": "SAGGSAGGSAGGEPELVFKVRVRTKDGRELEIEVSAEDLEKLLEALPDIEEVEIEEVEPSAGGSAGGSAGGS [r10_437_TrROS_Hall]", "folding stability dG unfold (kcal/mol)": 2.39}
{"residue-sequence": "SAGGSAGGSAGGSMTTVTLPDAVSTNVTTTKLPDNTTKVDITTTFPDGSTRSSTITINPSAGGSAGGSAGGS [r4_452_JUSTAS]", "folding stability dG unfold (kcal/mol)": -0.305}
{"residue-sequence": "SMKKNYKIKIEIIDIKIYNKNIPKNKPKYITIKAKITIYYKNKPYKYTIEIKYKIYNGKIYIIGSKIKPESA [r9_270_TrMRF]", "folding stability dG unfold (kcal/mol)": 3.36}
{"residue-sequence": "SAGGSAGGSAGGPTVTLTLEVPVEDAEELAKALEDAGKARVTKVERNEDGFLRITVEFEDSAGGSAGGSAGG [r7_589_TrROS_Hall]", "folding stability dG unfold (kcal/mol)": 0.593}
{"residue-sequence": "SAGGSAGGSMKIPEDETYEEKLPDGRKVTYTWEPESGLLKTTTTDPNNDTPTTSTYKVPPSSLLSAGGSAGG [r6_407_JUSTAS]", "folding stability dG unfold (kcal/mol)": 0.0466}
{"residue-sequence": "SAGGSAGGSAGEKTLKIVADSEEEAEALAKELAEKYNLEVTIERNPEEEGKYVITIKIKPSAGGSAGGSAGG [r11_797_TrROS_Hall]", "folding stability dG unfold (kcal/mol)": 2.46}
{"residue-sequence": "SAKTIKIEIEVKPEKLEEVLEEIAKALAEKLGLPEDVKEIKIEVTKIEVEKVKVDGKEYVKVKIEIKVESAG [r14_736_TrROS_Hall]", "folding stability dG unfold (kcal/mol)": 3.04}
{"residue-sequence": "SAGSITTTDGNISRSVTYIPGLNLYLVTSTYPTSVSVDLVTEEGGTLTTTPVSTTPLPLPASSLSTTASAGG [r19_328_JUSTAS]", "folding stability dG unfold (kcal/mol)": 0.207}
{"residue-sequence": "SAGGSAGGSAGGWKTISVNELQDILREEGKPMTADDLIEDPNIKVEENPGNGMPTIEIPPSAGGSAGGSAGG [r7_180_TrROS]", "folding stability dG unfold (kcal/mol)": -0.891}
{"residue-sequence": "SAGGSAGGSAGPEWYVVMRVENPGTGKEVHFIGPWDDFKEKLPPSNVKMEWHLIPADALKSAGGSAGGSAGG [r11_334_TrROS]", "folding stability dG unfold (kcal/mol)": 0.0887}
{"residue-sequence": "SAGGKKKYRIKITYKDEGKLYEVPEDVKATVDPNNVVYIEVDSKEAVDELVKAIAPKDGLEVEVEPGSAGGS [r8_131_TrMRF]", "folding stability dG unfold (kcal/mol)": 0.52}
{"residue-sequence": "SAKPIPLKNVTINMYKDEKGNYYFKVTLNDKFIGEFEFETTEEALEGAIELAKEIEKIYGPNNIKIKNESAG [r14_791_TrMRF]", "folding stability dG unfold (kcal/mol)": 2.33}

----------
Listing of entries alongside the reported folding stability dG unfold.
- test: folding stability dG unfold from chymotrypsin proteolysis; higher = more stable

{"residue-sequence": "SAGDWYIVIKITIYHPNKREREFPIVFDWKDGKIEIAPEFLQNIAEELGLPPNMKIEIEIVEIMPPNDSAGG [r19_287_TrROS]", "unit-spec": "kcal/mol", "folding stability dG unfold": 3.22}
{"residue-sequence": "SAGGSAGGSAGEIVIDVEPNMTVEEVKKRIKALAEELKKEKGLEIKKIEIKEGMSVEELLSAGGSAGGSAGG [r17_43_TrROS_Hall]", "unit-spec": "kcal/mol", "folding stability dG unfold": 0.225}
{"residue-sequence": "SAGSKEEKAKEIAKKLAEELKKKFPDLKIVEVKVVKIEYNKENKEIKITIYVYNKNGKLIKKIEITLPSAGG [r19_53_TrROS_Hall]", "unit-spec": "kcal/mol", "folding stability dG unfold": 4.63}
{"residue-sequence": "SAGGKLPLPPGTEVEFLFRSPLDPRRLYLVRVRFEPVPPDRLRLRPRVFNPETGEEVEFEFEVPLDEGSAGG [r13_268_TrMRF]", "unit-spec": "kcal/mol", "folding stability dG unfold": 3.23}
{"residue-sequence": "SATGKLAELLEEAFPDRPIASAEILGVEPLPDGRPALRFLLTFEDGSKLVVTVTSADHPEVLEAARENQSAG [r14_143_TrMRF]", "unit-spec": "kcal/mol", "folding stability dG unfold": 2.91}
{"residue-sequence": "SAGGSAGGSAGGSNDNVVPITILFVDPGKDDRLYLREIRLRIYENGDIEAEVKVYELPLSAGGSAGGSAGGS [r10_598_TrMRF]", "unit-spec": "kcal/mol", "folding stability dG unfold": 4.12}
{"residue-sequence": "SAGGSYLVEVVIEYPKQGVKKTVKLFVNNDPKKAEELAEDIIKELGYPDAKIEIKIIPVDPNDPRVLGSAGG [r13_682_JUSTAS]", "unit-spec": "kcal/mol", "folding stability dG unfold": 2.44}

----------
- test: folding stability dG unfold (combined trypsin and chymotrypsin); higher = more stable
observation-type: folding stability dG unfold (kcal/mol)

{"residue-sequence": "SAGGSAGGSAGGMVRFPDGKEVETESEEELEELLKGVPVEEITIEDPEEKGEKKIPVKLSAGGSAGGSAGGS [r10_1191_JUSTAS]", "test-value": -0.942}
{"residue-sequence": "SAGGGFDPSKLKKEKTLTLTLPGNSETFTIELYLPEDGESTVVFSYNDKNYELTITKDSITLKPVSSSAGGS [r16_711_JUSTAS]", "test-value": 2.79}
{"residue-sequence": "SAGGKMLVKIKIKVTIYDKNGKPVKEVELELVFPSLEDLLNALKSLSPEKIKKVEIVSIEEIDEEDLSAGGS [r16_677_TrROS_Hall]", "test-value": 3.73}
{"residue-sequence": "SAGVVVRPGEPVPFYVVRVETELRTRPRPDGSEVTTVETRVEVRPYTVTVGPVPVVEVPPDATDPADAASAG [r5_770_TrMRF]", "test-value": 3.21}

----------
- test: folding stability dG unfold from chymotrypsin proteolysis; higher = more stable

{"residue-sequence": "SAGGSAGGSAGKPIIKVKIIEKKDGYLKIEIEDEKTGETKTITLKPGQKLEIKLELVKEPSAGGSAGGSAGG [r11_738_TrROS_Hall]", "folding stability dG unfold, kcal/mol": 1.33}
{"residue-sequence": "SAGGSAGGTIIIEVDTREDALEAARALAEALLPPGYRVEIVSVEEVDGRVYVAIEVRPVPEEELSAGGSAGG [r6_72_TrROS_Hall]", "folding stability dG unfold, kcal/mol": 3.26}
{"residue-sequence": "SAGMPAETETTVTITTETIDEKGNLSTKTYTATVRTLPDGRVLVYLENELLLIDPATGEVVAREPNYKPSAG [r14_821_JUSTAS]", "folding stability dG unfold, kcal/mol": 2.26}
{"residue-sequence": "SAGGMKVEDFVLELPTPEGKKILVEAVKVTTDPEAGLISVELKTPDKKEKLTLSPDEYVRGPSPEEFLKSAG [r5_15_JUSTAS]", "folding stability dG unfold, kcal/mol": -0.376}
{"residue-sequence": "SAGDKGRYHFPFTVTMPPGKPPSQIEDALGKYGWDDVDINREPPPNGETKYTINVHMPKEDLPKLLEAFSAG [r5_376_TrROS]", "folding stability dG unfold, kcal/mol": 0.933}
{"residue-sequence": "SAGSAEELKEKIREELRERLAKELGYPNIEIKKVEVLKYDPETGTITVKVELKLPDGKELTLTITVPVKSAG [r5_20_JUSTAS]", "folding stability dG unfold, kcal/mol": 3.63}
{"residue-sequence": "SAGGSAGGSSSMVVIEKEFPDLTPEEVEKLAKEIEEKNPELGKVEVKFKPKKKPKPPLTPEAKKSAGGSAGG [r6_825_JUSTAS]", "folding stability dG unfold, kcal/mol": 1.29}
{"residue-sequence": "SAGGSKLKNLKSKPFPITFENGGKVTLNVVNIPKSSKPVVNITVIEPNSGKKKTFTVPLEEAKNLLSAGGSA [r2_366_TrMRF]", "folding stability dG unfold, kcal/mol": 1.16}
{"residue-sequence": "SAGGSAGGSAAPLYELEILSVDLDPDNPTVYVLARIPGTSNYVLITFPPNGDVYAYASPLPSAGGSAGGSAG [r3_294_TrMRF]", "folding stability dG unfold, kcal/mol": 2.37}
{"residue-sequence": "SAGGSAGGSKAEVFETPDGLVVVVVPTEDSVRAFVFFPDGYIAEFDFPTGKIVRIFSPDEEIASAGGSAGGS [r12_235_TrMRF]", "folding stability dG unfold, kcal/mol": 3.55}
{"residue-sequence": "SAGGWITVNQIRDLAKELPPGWRIKIKIEYPGKKHEHTIPPGDPITIPPNMPPEDITRIEITEIEPYSAGGS [r16_97_TrROS]", "folding stability dG unfold, kcal/mol": 0.444}
{"residue-sequence": "SAPEVFRFTIPRYRDDYEFDGDGYPVLKERKPVAPLEVEAVVFEDGTVRVRVGDEVREFPLGVSPEELFSAG [r14_909_TrMRF]", "folding stability dG unfold, kcal/mol": 0.355}
{"residue-sequence": "SAGGSAGGSAGGSGSMSVSGGPSVIVVTLPGGEKVVLPLDELDELYKLPYVSATTVSLPSAGGSAGGSAGGS [r4_348_JUSTAS]", "folding stability dG unfold, kcal/mol": 0.24}
{"residue-sequence": "SAGGEAEVVARAEVTLPDGVKVEVEVVRVDGKLVVRVRVEVRLPPPPPPPPPPLPPLSEEERKKLAEASAGG [r13_760_TrROS_Hall]", "folding stability dG unfold, kcal/mol": 2.09}

Where these numbers come from: the supplement of paper PMC12764529
